Tested on: clinical P. aeruginosa isolates
Assay: microbe, parasite or virus in culture
Details: Pseudomonas aeruginosa, 18 h, read-out: Antibiotic sensibility (MIC) of clinical P. aeruginosa isolate NR-31041, strain NR-31041; antibiotic alone
MEASURE NAME: MIC

May I ask what MIC has been recorded for CO[C@H]1/C=C/O[C@@]2(C)Oc3c(C)c(O)c4c(c3C2=O)C2=NC3(CCN(CC(C)C)CC3)NC2=C(NC(=O)/C(C)=C\C=C\[C@H](C)[C@H](O)[C@@H](C)[C@@H](O)[C@@H](C)[C@H](OC(C)=O)[C@@H]1C)C4=O [Rifabutin] ?
32 µM

Queued: CC[C@H]1OC(=O)[C@H](C)C(=O)[C@H](C)[C@@H](O[C@@H]2O[C@H](C)C[C@H](N(C)C)[C@H]2O)[C@](C)(OC)C[C@@H](C)C(=O)[C@H](C)[C@H]2N(CCCCn3cnc(-c4cccnc4)c3)C(=O)O[C@]12C [Telithromycin]
128 µM

What about C[C@@H]1O[C@@H]1P(=O)(O)O [Fosfomycin] ?
> 128 µM

Same question for CO[C@H]1/C=C/O[C@@]2(C)Oc3c(C)c(O)c4c(O)c(c5c(nc6cc(C)ccn65)c4c3C2=O)NC(=O)/C(C)=C\C=C\[C@H](C)[C@H](O)[C@@H](C)[C@@H](O)[C@@H](C)[C@H](OC(C)=O)[C@@H]1C [Rifaximin] please.
16 µM

# iterate: CN(C)c1ccc(O)c2c1C[C@H]1C[C@H]3[C@H](N(C)C)C(O)=C(C(N)=O)C(=O)[C@@]3(O)C(O)=C1C2=O [Minocycline]
16 µM

Ok, now CO[C@@H]1[C@@H](OC(N)=O)[C@@H](O)[C@H](Oc2ccc3c(O)c(NC(=O)c4ccc(O)c(CC=C(C)C)c4)c(=O)oc3c2C)OC1(C)C [Novobiocin]
> 128 µM

----------
Tested on: P. aeruginosa HM-214
Conditions: strain HM-214; antibiotic + D-11 (MICb/MICbc 128/4)
Task for the reader: assign each of the following molecules its reported FICI.

Could you tell me which FICI is on file for "C[C@@H](O)[C@H]1C(=O)N2C(C(=O)O)=C(S[C@@H]3CN[C@H](C(=O)N(C)C)C3)[C@H](C)[C@H]12" ?
1.031

Let us now turn to "CN(C)c1cc(NC(=O)CNC(C)(C)C)c(O)c2c1C[C@H]1C[C@H]3[C@H](N(C)C)C(O)=C(C(N)=O)C(=O)[C@@]3(O)C(O)=C1C2=O"
0.281

Further, for "CCn1cc(C(=O)O)c(=O)c2ccc(C)nc21" ?
0.531

Moving on to the next molecule: CC1COc2c(N3CCN(C)CC3)c(F)cc3c(=O)c(C(=O)O)cn1c23 (stereo not drawn)
1.031

Please answer likewise for "C[C@H]1[C@H](NC(=O)/C(=N\OC(C)(C)C(=O)O)c2csc(N)n2)C(=O)N1S(=O)(=O)O"
0.531

Please answer likewise for "CO[C@H]1/C=C/O[C@@]2(C)Oc3c(C)c(O)c4c(O)c(c(/C=N/N5CCN(C)CC5)c(O)c4c3C2=O)NC(=O)/C(C)=C\C=C\[C@H](C)[C@H](O)[C@@H](C)[C@@H](O)[C@@H](C)[C@H](OC(C)=O)[C@@H]1C"
0.047
